- System: HCC-2998 colon
- assay: NCI-60 one-dose screen, 48 h
- settings: 10 µM unless noted
The panel holds about 83,000 compounds, 20% with a hit somewhere; the sample as a whole holds those more often. Activity calls are given as the source filed them. How the source made its calls: active means growth percent below 10; inactive means the rest.
Would you mind answering with one of these outcomes? active, inactive

Tell me the recorded outcome of this test for CCOc1ccc(C(O)CN(C)Cc2ccccc2)cc1Cl (stereo not given) .
inactive

Tell me the recorded outcome of this test for O=C(O)C1(Br)CC12c1ccccc1-c1ccccc12 (stereo not given) .
inactive

Tell me the recorded outcome of this test for `CCOc1cc(/C=N\Nc2nnc(C)n2N)c(C)cc1N(CCCl)CCCl` .
active

Tell me the recorded outcome of this test for `c1ccc2nc(OCCN3CC3)ccc2c1` .
inactive

Tell me the recorded outcome of this test for Nc1ncnc2c1c(C(=O)NO)cn2C1OC(CO)C(O)C1O (stereo not given) .
active

Tell me the recorded outcome of this test for `c1ccc(-c2ccc3ccccc3[o+]2)cc1` .
inactive

Tell me the recorded outcome of this test for `ClCCN(CCCl)c1ccc(/C=C\c2ccnc3ccccc23)cc1` .
inactive

Tell me the recorded outcome of this test for C#CC1(O)CCC2(C)C(CCC3C4CCC(=O)C4(C)CCC32)C1 (stereo not given) .
inactive

Tell me the recorded outcome of this test for `CC1(C)N=C(N)N=C(N)N1c1ccc(OCCCCOc2ccc(S(=O)(=O)F)cc2)c(Cl)c1` .
inactive

Tell me the recorded outcome of this test for `C[C@]12CCc3sc(-c4ccc(Cl)cc4)nc3C1=CC[C@@H]1[C@@H]2CC[C@]2(C)C(=O)CC[C@@H]12` .
inactive

Tell me the recorded outcome of this test for `O=[N+]([O-])c1ccccc1N1CCNCC1` .
inactive

Tell me the recorded outcome of this test for `Nc1nc(N)c(-c2ccc(Cl)c(Cl)c2)c(/C=C/c2ccc(S(=O)(=O)F)cc2)n1` .
inactive

Tell me the recorded outcome of this test for O=[As]c1ccc(C(=O)c2ccc(Oc3ccccc3)cc2)cc1 (stereo not given) .
active

Tell me the recorded outcome of this test for `CCN(CC)c1ccc(C=C2C(=O)NC(=S)NC2=O)cc1` .
inactive

Tell me the recorded outcome of this test for `O=C(NCc1ccc([N+](=O)[O-])cc1)Nc1ccc(S(=O)(=O)F)cc1` .
inactive

====

Consider the following molecules; for each one, report its growth.
- System: SR leukemia
- assay: NCI-60 one-dose screen, 48 h (100 = growth as untreated, 0 = no growth, -100 = all killed)
- settings: 10 µM
Compounds without any hit were thinned out: in the full panel of roughly 83,000, 20% have a hit.
Give the number; % is assumed, so skip it.

Just so you know, measured growth for `O=S(=O)(O)c1ccc(-c2ccc([As](=O)(O)O)cc2)cc1` came out at 101

Just so you know, measured growth for `CC(C)CCC[C@@H](C)[C@H]1CC[C@H]2[C@@H]3CC=C4C[C@@H](OC(=O)Cc5ccc(N(CCCl)CCCl)cc5)CC[C@]4(C)[C@H]3CC[C@]12C` came out at 101

Just so you know, measured growth for CCC(C)[C@H]1O[C@]2(C=C[C@@H]1C)C[C@@H]1C[C@@H](C/C=C(\C)[C@@H](OC3C[C@H](OC)C(O[C@H]4C[C@H](OC)[C@@H](O)[C@H](C)O4)[C@H](C)O3)[C@@H](C)/C=C/C=C3\CO[C@@H]4[C@H](O)C(C)=C[C@@H](C(=O)O1)[C@]34O)O2 (stereo partly specified) came out at -28.1

Just so you know, measured growth for `O=C1NC(=O)C(O)(C2(O)C(=O)NC(=O)NC2=O)C(=O)N1` came out at 95.1

Just so you know, measured growth for `C/C1=C/C(=O)O[C@@H]2C[C@@H](CC[C@H](C)/C=C\C=C\CC1)O[C@@](OCCc1ccccc1)([C@@H]1CSC(=O)N1)C2` came out at 41.3

Just so you know, measured growth for `CCN(CC)c1ccc(C=C2C(=O)NC(=S)NC2=O)cc1` came out at -50.8

Just so you know, measured growth for `Nc1cccc(CC(=O)Nc2ccc(S(=O)(=O)F)cc2)c1` came out at 96.7

Just so you know, measured growth for [N-]=[N+]=NC(C(=O)O)c1ccccc1 (stereo unspecified) came out at 83.9

Just so you know, measured growth for `CCC(C)(C)O` came out at 101

Just so you know, measured growth for CN1C(=O)NC(=O)C(N=Nc2ccc(Cl)cc2)C1=O (stereo unspecified) came out at 100

Just so you know, measured growth for `Cc1ccccc1O` came out at 128

Just so you know, measured growth for `Cn1cnnc1[S-].[Au+].c1ccc([PH+](c2ccccc2)c2ccccc2)cc1` came out at 4.41

Just so you know, measured growth for `O=c1[nH]c2cc(Cl)ccc2n1C1CCN(CCCC(c2ccc(F)cc2)c2ccc(F)cc2)CC1` came out at 16.2

Just so you know, measured growth for CN1CCN(C(=O)COc2ccc(/C=C3\CC4C5CC=C6CC(Cl)CCC6(C)C5CCC4(C)C3=O)cc2)CC1 (stereo unspecified) came out at 0.223

Just so you know, measured growth for CCC1([N+](=O)[O-])COP(=O)(NCc2cccnc2)OC1 (stereo unspecified) came out at 105

Just so you know, measured growth for `C[CH2][Sn]([CH2]C)([CH2]C)[NH]S(=O)(=O)c1ccc(C)cc1` came out at 99.7

Just so you know, measured growth for `Cc1nnc([S-])s1.[Au+].c1ccc([PH+](c2ccccc2)c2ccccc2)cc1` came out at 7.04

Just so you know, measured growth for CC12CCC(=O)C=C1C(O)CC1C2CCC2(C)C(O)CCC12 (stereo unspecified) came out at 106

Just so you know, measured growth for `C=CCC1(CC)C(=O)NC(=S)NC1=O` came out at 96.7

Just so you know, measured growth for `CC(/C=N/N=C(N)N)=N\N=C(N)N` came out at 70.1

Just so you know, measured growth for `O=S(=O)(c1ccc(Cl)cc1)C(Cl)(Cl)Cl` came out at 15.1
